System: HCV 1a-H77 subgenomic replicon
Test: microbe, parasite or virus in culture
Format: cell-based, HCV genotype 1a
Details: Hepatitis C virus, stable replicon, strain 1a H77, 5% FBS, no human plasma; read-out: 1a H77 5% FBS EC50
Result Type: EC50
Quick note: number first, unit second.

Enquiry: Find EC50 (HCV 1a-H77 subgenomic replicon) for the entry CC(C)(O)C(O)CCN(c1cc2oc(-c3ccc(F)cc3)c(C3=NOCN3)c2cc1C1CC1)S(C)(=O)=O (stereo not shown)
Return: 12.6 nM

Enquiry: Find EC50 (HCV 1a-H77 subgenomic replicon) for the entry CCN(c1cc2oc(-c3ccc(F)cc3)c(-c3ncc[nH]3)c2cc1C1CC1)S(C)(=O)=O
Return: 27.8 nM

Enquiry: Find EC50 (HCV 1a-H77 subgenomic replicon) for the entry CC(O)CCCN(c1cc2oc(-c3ccc(F)cc3)c(-c3ncc[nH]3)c2cc1C1CC1)S(C)(=O)=O (stereo not shown)
Return: 6 nM

Enquiry: Find EC50 (HCV 1a-H77 subgenomic replicon) for the entry CS(=O)(=O)N(CCCc1nnn[nH]1)c1cc2oc(-c3ccc(F)cc3)c(C3=NOCCN3)c2cc1C1CC1
Return: 1000 nM

====

Molecular target: HCV NS5B polymerase 1a-H77-C316Y (Hepatitis C virus genotype 1a, UniProt P27958, C2736Y)
Construct: six-histidine tag
Sequence (P27958 2421-2990 C2736Y): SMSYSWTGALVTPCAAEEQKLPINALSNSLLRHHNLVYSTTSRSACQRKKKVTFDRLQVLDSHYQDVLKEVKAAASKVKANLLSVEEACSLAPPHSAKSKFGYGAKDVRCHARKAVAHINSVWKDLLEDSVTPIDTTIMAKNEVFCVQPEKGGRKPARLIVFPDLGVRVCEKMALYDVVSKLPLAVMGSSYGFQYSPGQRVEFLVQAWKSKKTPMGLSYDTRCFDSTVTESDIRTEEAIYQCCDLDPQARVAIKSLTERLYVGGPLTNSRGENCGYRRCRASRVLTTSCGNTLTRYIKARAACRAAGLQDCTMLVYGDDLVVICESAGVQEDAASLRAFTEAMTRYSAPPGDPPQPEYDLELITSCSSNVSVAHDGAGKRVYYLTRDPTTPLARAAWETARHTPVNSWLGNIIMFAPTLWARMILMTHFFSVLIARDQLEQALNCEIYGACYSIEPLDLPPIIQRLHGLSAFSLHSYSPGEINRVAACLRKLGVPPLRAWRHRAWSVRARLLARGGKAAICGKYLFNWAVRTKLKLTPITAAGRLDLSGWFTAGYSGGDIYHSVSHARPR
Experiment: biochemical
Assign IC50 to each entry below.
API: value field is a number in nM; no unit string.

Enquiry: // lookup IC50 for CCCCCN(c1cc2oc(-c3ccc(F)cc3)c(-c3ncc[nH]3)c2cc1C1CC1)S(C)(=O)=O
Return: 69

Enquiry: // lookup IC50 for CS(=O)(=O)N(CCCN1CCS(=O)(=O)CC1)c1cc2oc(-c3ccc(F)cc3)c(C3=NOCCN3)c2cc1C1CC1
Return: 70

Enquiry: // lookup IC50 for CC(C)CCN(c1cc2oc(-c3ccc(F)cc3)c(C3=NOC(C)N3)c2cc1C1CC1)S(C)(=O)=O (stereo not drawn)
Return: 70

====

Test system: HCV 1b-BB7 subgenomic replicon
Assay: microbe, parasite or virus in culture
Type: cell-based, HCV genotype 1b
Conditions: Hepatitis C virus, stable replicon, strain 1b BB7, 5% FBS + 40% human plasma; read-out: 1b BB7 5% FBS + 40% Human Plasma EC50
Result Type: pEC50
The read-out pEC50 is expressed as -log10 of concentration in moles per litre.

Enquiry: // lookup pEC50 for CS(=O)(=O)N(CCCOc1ccccc1)c1cc2oc(-c3ccc(F)cc3)c(-c3ncc[nH]3)c2cc1C1CC1
Return: 6.28

Enquiry: // lookup pEC50 for CS(=O)(=O)N(CCN1CCCC1)c1cc2oc(-c3ccc(F)cc3)c(C3=NOCCN3)c2cc1C1CC1
Return: 6.57

Enquiry: // lookup pEC50 for Cc1ncsc1CCN(c1cc2oc(-c3ccc(F)cc3)c(-c3ncc[nH]3)c2cc1C1CC1)S(C)(=O)=O
Return: 6.29

Enquiry: // lookup pEC50 for CC1NC(c2c(-c3ccc(F)cc3)oc3cc(N(CCS(C)(=O)=O)S(C)(=O)=O)c(C4CC4)cc23)=NO1 (centres unmarked)
Return: 7.09

Enquiry: // lookup pEC50 for CC(C)(C)[Si](C)(C)OCCCCN(c1cc2oc(-c3ccc(F)cc3)c(-c3ncc[nH]3)c2cc1C1CC1)S(C)(=O)=O
Return: 5.47
